experiment: Clearance in female C57BL/6 mouse at 10 mg/kg, iv measured up to 24 hrs by LC-MS/MS analysis; details: in vivo
value kind: clearance at 24 h (mL/min/kg)
Enter your answer as a number in mL/min/kg; do not include the unit.

So what's the measured clearance at 24 h for this one? "O=C(Nc1cc(F)c(F)cc1C(=O)O)c1ccc(-n2ccnc2)nn1"
123

###

molecular target: Stimulator of interferon genes protein (Homo sapiens, UniProt Q86WV6, G230A/R293Q)
Sequence (Q86WV6 whole entry G230A/R293Q): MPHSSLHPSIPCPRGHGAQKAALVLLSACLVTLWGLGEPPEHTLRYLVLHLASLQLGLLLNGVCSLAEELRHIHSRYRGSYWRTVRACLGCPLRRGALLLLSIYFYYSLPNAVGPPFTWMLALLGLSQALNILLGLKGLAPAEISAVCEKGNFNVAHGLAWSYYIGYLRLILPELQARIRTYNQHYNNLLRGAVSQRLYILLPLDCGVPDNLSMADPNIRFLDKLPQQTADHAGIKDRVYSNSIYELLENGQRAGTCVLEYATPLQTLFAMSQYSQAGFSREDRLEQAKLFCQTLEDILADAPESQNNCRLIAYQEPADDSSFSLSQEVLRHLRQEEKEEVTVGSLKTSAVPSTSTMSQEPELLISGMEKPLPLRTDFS
Documented pIC50 across a set of compounds
Just so you know, pIC50 here is -log10 of the concentration in molar units; reply with that number alone.

{"structure notation": "O=C(Nc1cc(Cl)c(F)cc1C(=O)O)c1ccc(-n2cnc(F)c2)nn1", "system tested": "Stimulator of interferon genes protein (Homo sapiens, UniProt Q86WV6, G230A/R293Q)", "val": 6.03}

So what's the measured pIC50 for this one? "O=C(Nc1cc(Br)c(F)cc1C(=O)O)c1ccc(-n2cnc(F)c2)nn1"
6.01
